- ASSAY DETAILS: The drug is tested on WLS-010 corresponding to human gut metagenome with ENA study accession number: PRJEB37062 and ENA sample accession number: ERS12561743 for biotransformation under anaerobic condition. The drug concentrations were measured over 9 timepoints collected between 0 and 24 hours of incubation by liquid-chromatography-coupled mass spectrometry (LC–MS); further: call rule not given here
- ASSAY CONDITIONS: 2 µM
PROPERTY NAME: Bacterial Biotransformation

>>> test_value("O=c1[nH]c2ccccc2n1C1CCN(CCCC(c2ccc(F)cc2)c2ccc(F)cc2)CC1 [PIMOZIDE]")
"Compound metabolized"
>>> test_value("COc1ccc2c3c1O[C@H]1C[C@@H](O)C=C[C@@]31CCN(C)C2 [GALANTAMINE]")
"Compound metabolized"
>>> test_value("CC[C@@H](CO)NC(=O)[C@@H]1C=C2c3cccc4c3c(cn4C)C[C@H]2N(C)C1.O=C(O)/C=C\\C(=O)O [METHYSERGIDE MALEATE]")
"Compound NOT metabolized"
>>> test_value("CCN(CC)CCNC(=O)c1cc(Cl)c(N)cc1OC [METOCLOPRAMIDE]")
"Compound NOT metabolized"
>>> test_value("CCC(=O)NCC[C@@H]1CCc2ccc3c(c21)CCO3 [RAMELTEON]")
"Compound metabolized"

Consider now this further compound.
Qu. // returns reported Bacterial Biotransformation for input CCOC(=O)[C@H](CCc1ccccc1)N[C@H]1CCc2ccccc2N(CC(=O)O)C1=O [BENAZEPRIL]
Ans. Compound metabolized

Data provenance: ChEMBL document CHEMBL5724914
